Molecular target: UniProt Q00987
Sequence (Q00987 1-125): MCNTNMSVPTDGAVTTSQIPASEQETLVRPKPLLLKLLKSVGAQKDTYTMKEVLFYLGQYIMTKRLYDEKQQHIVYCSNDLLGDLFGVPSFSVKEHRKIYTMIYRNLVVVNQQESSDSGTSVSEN
Experiment: Competitive fluorescence polarization assay for MDM2
Type: binding
Conditions: competitive FP assay, MDM2; read-out: Ki (MDM2)
Where a SMILES comes first, the peptide text is derived from it. Bridges are numbered along the chain shown (N, C = ends). [ ]: non-standard residue; d: D form. R8 = C=CCCCCCC[C@@](C)(N)C(=O)O; Cha = N[C@@H](CC1CCCCC1)C(=O)O; S5 = C=CCCC[C@](C)(N)C(=O)O
Experimental Endpoint: Ki

Consider CC(=O)N[C@@H](Cc1ccccc1)C(=O)N[C@]1(C)CCCCCCC=CCCC[C@@](C)(C(=O)N[C@@H](Cc2c[nH]cn2)C(=O)N[C@@H](CCCNC(=N)N)C(=O)N[C@@H](Cc2ccccc2)C(=O)N[C@@H](CC2CCCCC2)C(N)=O)NC(=O)[C@H](CC(C)C)NC(=O)[C@H](CCC(N)=O)NC(=O)[C@H](Cc2c[nH]cn2)NC(=O)[C@H](Cc2c[nH]c3ccccc23)NC(=O)[C@H](Cc2c[nH]cn2)NC(=O)[C@H](Cc2c[nH]cn2)NC1=O [compound 55] (Ac-F[R8]HHWHQL[S5]HRF[Cha]-NH2; staple 2-9) . Its measured Ki is 100 to 1000 nM

###

Target: MDMX (Homo sapiens)
Sequence (O15151 1-125): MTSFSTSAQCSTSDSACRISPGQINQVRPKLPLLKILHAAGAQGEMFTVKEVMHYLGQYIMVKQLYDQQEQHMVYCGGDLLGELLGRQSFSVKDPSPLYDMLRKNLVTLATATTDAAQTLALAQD
Test: Competitive fluorescence polarization assay for MDMX
Type: binding
Conditions: competitive FP assay, read-out: Ki (MDMX)
Where a SMILES comes first, the peptide text is derived from it. Bridges are numbered along the chain shown (N, C = ends). [ ]: non-standard residue; d: D form. R8 = C=CCCCCCC[C@@](C)(N)C(=O)O; S5 = C=CCCC[C@](C)(N)C(=O)O
Experimental Endpoint: Ki

Molecule: CC(=O)N[C@@H](CC(C)C)C(=O)N[C@H](C(=O)N[C@@H](Cc1ccccc1)C(=O)N[C@]1(C)CCCCCCC=CCCC[C@@](C)(C(=O)N[C@@H](CO)C(=O)N[C@@H](C)C(=O)N[C@@H](C)C(N)=O)NC(=O)[C@H](CC(C)C)NC(=O)[C@H](CCC(N)=O)NC(=O)[C@H](C)NC(=O)[C@H](Cc2c[nH]c3ccccc23)NC(=O)[C@H](CCC(=O)O)NC(=O)[C@H](C)NC1=O)[C@@H](C)O (single isomer, unassigned) [compound 166]
Ki: 10 to 100 nM

Field: next molecule
Consider CC(=O)N[C@@H](Cc1ccccc1)C(=O)N[C@]1(C)CCCCCCC=CCCC[C@@](C)(C(=O)N[C@@H](CCCNC(=N)N)C(=O)N[C@@H](CCCNC(=N)N)C(=O)N[C@@H](CC(=O)O)C(=O)N[C@@H](C)C(N)=O)NC(=O)[C@H](CC(C)C)NC(=O)[C@H](CCC(N)=O)NC(=O)[C@H](Cc2c[nH]cn2)NC(=O)[C@H](Cc2c[nH]c3ccccc23)NC(=O)[C@H](Cc2c[nH]cn2)NC(=O)[C@H](Cc2c[nH]cn2)NC1=O [compound 54] (Ac-F[R8]HHWHQL[S5]RRDA-NH2; staple 2-9) . Its measured Ki is 10 to 100 nM
